The reported measurements were obtained from paper PMC4096996.

system_tested: AvGluR1 LBD (Adineta vaga, UniProt E9P5T5, INS567GT)
Sequence (E9P5T5 with tags, fused parts or gaps INS567GT): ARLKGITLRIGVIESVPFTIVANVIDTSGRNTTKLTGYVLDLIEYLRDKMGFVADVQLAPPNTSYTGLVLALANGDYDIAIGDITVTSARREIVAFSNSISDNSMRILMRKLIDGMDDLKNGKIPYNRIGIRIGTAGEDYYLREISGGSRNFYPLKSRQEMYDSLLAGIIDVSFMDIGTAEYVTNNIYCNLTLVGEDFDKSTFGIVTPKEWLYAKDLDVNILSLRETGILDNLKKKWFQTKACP
assay_method_text: biochemical
Format: binding
condition_info: displacement of 100 nM [3H] L-Glu, NaCl buffer

molecule: O=[N+]([O-])c1cc2nc(O)c(O)nc2cc1[N+](=O)[O-] [DNQX]
Kd: 250 µM
--
molecule: CN[C@H](CC(=O)O)C(=O)O [NMDA]
Kd: 9900 µM
--
molecule: Cc1o[nH]c(=O)c1CC(N)C(=O)O (centres unmarked) [AMPA]
Kd: 130 µM
--
molecule: N[C@H](CCC(=O)O)C(=O)O [D-Glu]
Kd: 130 µM
--
molecule: Cc1cn(C[C@H](N)C(=O)O)c(=O)n(Cc2ccsc2C(=O)O)c1=O [UBP-310]
Kd: 160 µM
--
molecule: C=C(C)[C@H]1CN[C@H](C(=O)O)[C@H]1CC(=O)O [kainate]
Kd: 2700 µM
--
molecule: C[C@H](C[C@H](N)C(=O)O)C(=O)O [SYM2081, 2S,4R-4-methyl glutamate]
Kd: 49.5 µM
--
molecule: NC(CCCP(=O)(O)O)C(=O)O (centres unmarked) [AP5]
Kd: 530 µM
